Listed here are binders together with their documented ELISA binding hIL-12RB2/control.
TARGET OF ASSAY: T1, biotinylated recombinant human IL-12Rβ2 (human, UniProt Q99665 24-622, random biotinylated)
T1 construct: Recombinant protein produced in-house, biotinylated; also called hIL-12RB2; human IL-12RB2
T1 sequence: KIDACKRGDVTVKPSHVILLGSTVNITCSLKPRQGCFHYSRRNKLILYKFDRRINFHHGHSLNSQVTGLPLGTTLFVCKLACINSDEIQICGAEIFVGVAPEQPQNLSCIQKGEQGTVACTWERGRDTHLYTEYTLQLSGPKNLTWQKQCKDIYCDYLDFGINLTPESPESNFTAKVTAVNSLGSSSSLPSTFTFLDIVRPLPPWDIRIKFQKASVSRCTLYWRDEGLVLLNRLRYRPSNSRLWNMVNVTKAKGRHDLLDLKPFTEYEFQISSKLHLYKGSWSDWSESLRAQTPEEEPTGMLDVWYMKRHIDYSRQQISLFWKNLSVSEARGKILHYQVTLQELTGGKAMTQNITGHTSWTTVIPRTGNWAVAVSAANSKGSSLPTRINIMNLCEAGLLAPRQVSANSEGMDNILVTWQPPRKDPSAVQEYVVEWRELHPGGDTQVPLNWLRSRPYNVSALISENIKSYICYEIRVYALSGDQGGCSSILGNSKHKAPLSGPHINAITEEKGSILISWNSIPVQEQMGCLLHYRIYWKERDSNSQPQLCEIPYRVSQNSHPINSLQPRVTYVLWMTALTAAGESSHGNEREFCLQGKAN
TEST DESCRIPTION: ELISA, periplasmic extract on biotinylated hIL-12Rβ2, signal over control wells
REPORTED METRIC: ELISA binding hIL-12RB2/control (ratio)

>>> numeric_value("anti-IL-12Rβ2 VHH clone 20516 (VHH, not shown: small tags and cut ends, tested as periplasmic extract; also called 3CAM85) VHH: QVQLQESGGGLVQAGGSLRLSCAASGRTFSSYGMSWFRQAPGKERDFVAAISRDARITDYADSVKGRFTISRDNVKNTVYLQMNSLNPEDTAVYFCAAAYTYSGSHYVTARSSDYHSWGQGTQVTVSS")
1.23
>>> numeric_value("anti-IL-12Rβ2 VHH clone 21057 (VHH, not shown: small tags and cut ends, tested as periplasmic extract; also called 3CRHM35) VHH: QVQLQESGGGLVQAGGSLRLSCAASGRTFSNYAMAWFRQAPGTEREFVAGLSGSGGDTAFYDNSVMGRFTISRDSAKNTMWLQINNLKPEDTAVYYCAAATHVVVNYGLVRRRGTYDYWGQGTQVTVSS")
4.84
>>> numeric_value("anti-IL-12Rβ2 VHH clone 20532 (VHH, not shown: small tags and cut ends, tested as periplasmic extract; also called 2CAMS19) VHH: QVQLQESGGGLVQAGGSLRLSCAASGRTFVTYAMGWFRQAPGKEREFVAAISWSGGRLYYADSVKGRFTISRDNAKNTVYLQMNSLKPEDTAVYYCAADPQDYTGRDYQRRRYDYWGQGTQVTVSS")
0.812
>>> numeric_value("anti-IL-12Rβ2 VHH clone 20517 (VHH, not shown: small tags and cut ends, tested as periplasmic extract; also called 2CRMS10) VHH: QVQLQESGGGLAQPGGSLRLSCTASGSIFAIDDMYWYRQAPGKQREFVAYITATNSANYLDSVNGRFTISRDNAKNSVYLQMNSLKPEDTAVYYCNAKQIVGFQIDEYWGQGTQVTVSS")
0.968
>>> numeric_value("anti-IL-12Rβ2 VHH clone 20404 (VHH, not shown: small tags and cut ends, tested as periplasmic extract; also called 3CAHS153) VHH: QVQLQESGGGLVQAGGSLRLSCAASGRTFSSYAMGWFRQVPGKERDFVAAVSWGGLSTYYADSVEGRFTISRDNAKNTVFLQMNSLKPEDTAVYYCAADRAYEGLGYGEYEYWGQGTQVTVSS")
3.32
>>> numeric_value("anti-IL-12Rβ2 VHH clone 20540 (VHH, not shown: small tags and cut ends, tested as periplasmic extract; also called 3CAMS5) VHH: QVQLQESGGGLVQAGDSLRISCAASGRTFSSYGMGWFRQAPGKERDFVAAISRDARYTDYADSVKGRFTISKDNAKNTAYLQMNSLNPEDTAVYFCAAAYTYSGSHYVTARSGDYNYWGQGTQVTVSS")
0.834
>>> numeric_value("anti-IL-12Rβ2 VHH clone 20491 (VHH, not shown: small tags and cut ends, tested as periplasmic extract; also called 2CAM57) VHH: QVQLQESGGGLVQAGGSLRLSCAASGRTFSSYGMGWFRQAPGKERDFVAAISRDARYTDYADSVKGRFTISKDNAKNTAYLQMNSLNPEDTAVYFCAAAYTYSGSHYVTARSGDYNYWGQGTQVTVSS")
1
>>> numeric_value("anti-IL-12Rβ2 VHH clone 20536 (VHH, not shown: small tags and cut ends, tested as periplasmic extract; also called 2CAMS53) VHH: QVQLQESGGGMVQAGGSLRLSCAASGRTFSSYGMGWFRQAPGKEREFVAAISRGARNTDYADSVKGRFTISRDNAKNTAYLQMNSLNPEDTAVYFCAAAYTYSGSHYVTARSSDYPYWGQGTQVTVSS")
0.842
